// growth lookup, one value per entry
# Tested on: MDA-MB-435 melanoma
# test: NCI-60 one-dose screen, 48 h (100 = growth as untreated, 0 = no growth, -100 = all killed)
# details: 10 µM unless noted
This is part of a sample that, as a whole, favours compounds with a hit. Of some 83,000 tested, about 20% had one in any assay.
Give just the numeric value; % need not be written.

Query: Dear colleague, please send me the reported growth for CC(=O)N1N=C(c2cc3ccccc3oc2=O)CC1c1cn(-c2ccccc2)nc1-c1ccc(C)cc1 (centres undefined) when you can.
Reply: 102

Query: Dear colleague, please send me the reported growth for O=C(CSc1nc2ccccc2c(=O)n1-c1ccccc1)N/N=C/c1ccc(Oc2ccc(Br)cc2)cc1 when you can.
Reply: 80.8

Query: Dear colleague, please send me the reported growth for Cc1nc(N)sc1-c1csc(Nc2ccc(C(F)(F)F)cc2)n1 when you can.
Reply: 37.8

Query: Dear colleague, please send me the reported growth for O=S(=O)(Oc1ccc(-c2cn3ccoc3n2)cc1)C1CCCCC1 when you can.
Reply: 98.6

====

# System: SNB-75 CNS
# test: NCI-60 one-dose screen, 48 h (100 = growth as untreated, 0 = no growth, -100 = all killed)
# details: 10 µM unless noted
About 83,000 compounds went through this panel and 20% of them were active in at least one assay; those are over-represented in the sample as a whole.
endpoint name: growth (%)
Give just the numeric value; % need not be written.

These solved cases illustrate the format of a correct answer.
[
  {
    "compound": "COc1ccc(/C=N/N=C(/c2ccccc2)c2ccc3nc(-c4ccc(Cl)cc4)[nH]c3c2)cc1",
    "test target": "SNB-75 CNS",
    "reported": 106
  },
  {
    "compound": "C#CCN(C)CCCOc1ccc(NC(=O)CCCCCCC(=O)NO)cc1Cl",
    "test target": "SNB-75 CNS",
    "reported": 26.3
  },
  {
    "compound": "O=C1C(SCc2ccccc2)=C(Cl)CN1c1ccc(Cl)cc1",
    "test target": "SNB-75 CNS",
    "reported": 103
  },
  {
    "compound": "CCCCCCCCCCCC(=O)NC(C)(C)C(=O)N1CCCC1C(=O)NC(C)(C)C(=O)NC(C)(C)C(=O)N1CCCC1C(=O)NC(C)(C)C(=O)NC(C)(C)C(=O)N1CCCC1C(=O)NC(C)C(=O)NCCC(=O)NC(C)C(=O)NC(C)(C)C(=O)NC(C)(C)C(=O)NC(C)(C)C(=O)NCCC(=O)NC(C)(C)C(=O)NC(C)(C)C(=O)NC(C)(C)C(=O)NC(C)C(=O)NCCC(=O)O (configuration not stated)",
    "test target": "SNB-75 CNS",
    "reported": -89.7
  },
  {
    "compound": "Cc1ccc(CSC2=C(Cl)CN(c3ccc(Cl)cc3)C2=O)cc1",
    "test target": "SNB-75 CNS",
    "reported": 103
  }
]

Query: Dear colleague, please send me the reported growth for O=C(COc1ccc(/C=C2\C(=O)Nc3ccc(Cl)cc32)cc1)Nc1ccc(Cl)cc1 when you can.
Reply: 78.9

Query: Dear colleague, please send me the reported growth for C#CCN(C)CCCOc1ccc(NC(=O)CCCCCCCCC(=O)NO)cc1Cl when you can.
Reply: 63.4

====

// growth lookup, one value per entry
# Test system: T-47D breast
# test: NCI-60 one-dose screen, 48 h (100 = growth as untreated, 0 = no growth, -100 = all killed)
# details: 10 µM unless noted
This is part of a sample that, as a whole, favours compounds with a hit. Of some 83,000 tested, about 20% had one in any assay.
Give just the numeric value; % need not be written.

These solved cases illustrate the format of a correct answer.
[
  {
    "sample smiles": "CCCCCCOC(=O)c1cc(-c2ccc(F)cc2)nc2ccccc12",
    "growth / %": 88.8
  },
  {
    "sample smiles": "O=C(Nc1ccc(N2CCOCC2)cc1)Nc1ccc2c(ccn2C(=O)c2cccc(F)c2)c1",
    "growth / %": 68.9
  }
]

Query: Dear colleague, please send me the reported growth for CN1c2ccccc2Sc2cc(/C=N/Nc3ccnc4cc(Cl)ccc34)ccc21 when you can.
Reply: 87.4

====

# Test system: CCRF-CEM leukemia
# test: NCI-60 one-dose screen, 48 h (100 = growth as untreated, 0 = no growth, -100 = all killed)
# details: 10 µM unless noted
This is part of a sample that, as a whole, favours compounds with a hit. Of some 83,000 tested, about 20% had one in any assay. Calls of active or inactive are those of the source. Rule for the calls: active = growth percent below 10; inactive = the rest.
endpoint name: growth

Query: With CCRF-CEM leukemia as the test system, provide measured growth for this compound: COC(=O)CCCNCCCn1ccc2cc(NCc3cccc(-c4ccccc4)c3C)ccc21
Reply: 33.8% (inactive)

Query: With CCRF-CEM leukemia as the test system, provide measured growth for this compound: CCOC(=O)c1cccc(NC2=C(Cl)C(=O)C(C)=C(C)C2=O)c1
Reply: 13.9% (inactive)

Query: With CCRF-CEM leukemia as the test system, provide measured growth for this compound: COc1ccc(Cn2cc(C#N)c(N)c2C(C)=O)cc1
Reply: 94.7% (inactive)

Query: With CCRF-CEM leukemia as the test system, provide measured growth for this compound: CC1(C)C=Cc2cc(/C(N)=N/C(N)=N/c3nc4ccccc4s3)ccc2O1
Reply: 46.3% (inactive)

Query: With CCRF-CEM leukemia as the test system, provide measured growth for this compound: COc1ccc2[nH]cc(-c3nc(N)nnc3-c3cn(C)c4ccc(Br)cc34)c2c1
Reply: 2.97% (active)

====

# Test system: U251 CNS
# test: NCI-60 one-dose screen, 48 h
# details: 10 µM unless noted
This is part of a sample that, as a whole, favours compounds with a hit. Of some 83,000 tested, about 20% had one in any assay. Activity calls are given as the source filed them. The calls were made as follows: active = growth percent below 10; inactive = the rest.
Tick one outcome: active, inactive

Some entries whose results are on file:
[
  {
    "molecule": "CCS(=O)(=O)Nc1ccc(C(=O)CC2(O)C(=O)Nc3ccccc32)cc1 (stereo not drawn)",
    "assigned label": "inactive"
  },
  {
    "molecule": "CCOC(=O)c1c(NC(=O)c2cccc(C(F)(F)F)c2)sc2c3c(ccc12)OCN(C)C3",
    "assigned label": "active"
  }
]

Query: Call for entry COc1ccc(NC(=O)CCCCCCNC(=O)C(O)(O)C(F)(F)F)cc1 :
Reply: inactive

Query: Call for entry CC1CC(=O)C2=C(C1)Nc1ccc(Br)cc1CC2c1c[nH]c2ccc(Br)cc12 (stereo not drawn) :
Reply: inactive

Query: Call for entry Cc1c(C(=O)/C=C/c2ccc(Cl)cc2)nnn1-c1ccc2oc(=O)ccc2c1 :
Reply: inactive

Query: Call for entry CN(C)c1ccc(-c2cc(-c3c[nH]c4ccccc34)nc(N)c2C#N)cc1 :
Reply: inactive

Query: Call for entry CC1(C)CC[C@]2(C(=O)NCCCCCCN(CCCN)CCCN)CC[C@]3(C)C(=CC[C@@H]4[C@@]5(C)CC[C@H](O)C(C)(C)[C@@H]5CC[C@]43C)[C@@H]2C1 :
Reply: inactive

Query: Call for entry COc1ccc2c(c1)c(/C=N/Nc1ccnc3cc(Cl)ccc13)cn2C :
Reply: active

====

# Tested on: KM12 colon
# test: NCI-60 one-dose screen, 48 h
# details: 10 µM unless noted
# Procedure: Growth inhibition of the KM12 human tumor cell line is measured as a screen for anti-cancer activity. Cells are grown in 96 well plates and exposed to the test compound for 48 hours. Compounds are tested at a single concentration, which is 10^-5 M for most compounds. The reported endpoint is percent growth (GI% or GIPRCNT), where numbers from 0 - 100% represent growth inhibition, and numbers from -100% - 0 represent cell death. For example, a value of 40 represents 60% growth inhibition. […]
The panel holds about 83,000 compounds, 20% with a hit somewhere; the sample as a whole holds those more often. Active and inactive are the calls of the source. How the source made its calls: active means growth percent below 10; inactive means the rest.
Tick one outcome: TRUE = active, FALSE = inactive

Query: Call for entry CN1CCN(c2ccc(Nc3nc(NCCNC(=O)c4ccc(F)cc4)c4sccc4n3)cc2)CC1 :
Reply: FALSE

Query: Call for entry CC(Nc1c(C#N)cnc2ccc(-c3cncc(O)c3)cc12)c1ccccc1 (configuration not stated) :
Reply: TRUE

Query: Call for entry Cc1ccc(S(=O)(=O)NCCCNc2nccc(-c3[nH]c(-c4ccccc4)nc3-c3ccc(F)c(O)c3)n2)cc1 :
Reply: FALSE

Query: Call for entry NC(=O)c1c(NC(=O)c2ccc(C(F)(F)F)cc2)sc2c1CCC(=O)C2 :
Reply: TRUE

Query: Call for entry O=C1C(N2CCN(c3ccccc3)CC2)=C(Cl)C(=O)c2ncccc21 :
Reply: FALSE

Query: Call for entry Cc1[nH]c(C(=O)Nc2ccc(S(=O)(=O)N3CCCCC3)cc2OCCOCCOCCOCCOCCOCCOCCOCCOCCOc2cc(S(=O)(=O)N3CCCCC3)ccc2NC(=O)c2[nH]c(C)c3c2CCCCC3=O)c2c1C(=O)CCCC2 :
Reply: FALSE

Query: Call for entry CSc1ccc(/C(=N/N=C(N)N)c2ccc(Cl)cc2)cc1 :
Reply: TRUE
